Entries and their measured FXa assay % of FXa alone, 20 nM Ab, 10 nM TFPI follow.
Biological target: recombinant human TFPI (tissue factor pathway inhibitor) (human, UniProt P10646 29-304)
Assay: cell-based or functional assay
ENDPOINT LABEL: FXa assay % of FXa alone, 20 nM Ab, 10 nM TFPI (%)

BINDER	ASSAY RESULT
clone 1238 (antibody, V domains shown) VH: EVQLVESGGGLVKPGGSLRLSCAASGFTFSSYAMNWVRQAPGKGLEWVSTITTGGSYTYYADSVEGRFTISRDNAKNSLYLQMNSLRAEDTAVYYCARQDGHFLMDYWGQGTLVTVSS VL: DVVMTQTPLSLPVTLGQPASISCKSSQSLLDVDGKTYLNWLQQRPGQSPKRLIYLVSKLDSGVPDRFTGSGSGTDFTLKISRVEAEDVGVYYCWQGTHFPFTFGQGTKVEIKR	63.2
clone 1216 (antibody, V domains shown) VH: EVQLVESGGGLVKPGGSLRLSCAASGFTFSHYAMNWVRQAPGKGLEWVSTITTGGSYTYYADSVEGRFTISRDNAKNSLYLQMNSLRAEDTAVYYCARQDGHFLMDYWGQGTLVTVSS VL: DVVMTQTPLSLPVTLGQPASISCKSSQSLLDIDGKTYLNWLQQRPGQSPKRLIYLVSKLDSGVPDRFTGSGSGTDFTLKISRVEAEDVGVYYCWQGTHLPFTFGQGTKVEIKR	3.3
